- System: Pseudomonas fluorescens HPPD polypeptide (wild-type and mutants)
- ASSAY_TEXT: Coupled HPPD activity assay: turnover and residual turnover in crude HPPD polypeptide extracts with and without Cmpd. 1
- Assay type: biochemical
- TEST_CONDITIONS: 100 μM Cmpd. 1, normalised to turnover without inhibitor
Please mark MET if the recorded Residual turnover [%] is equal to or greater than 50%, and NOT MET if it falls below.

Sample answers from the record:
SEQ ID NO:17 (protein, mutant HPPD polypeptide) MADLYENPMGLMGFEFIEFASPTPGTLEPIFEIMGFTKVATHRSKNVHLYRQGEINLILNNEPNSIASYFAAEHGPSVCGMAFRVKDSQKAYNRALELGAQPIHIDTGPMELNLPAIKGIGGAPLYLIDRFGEGSSIYDIDFVYLEGVERNPVGAGLKVIDHLTHNVYRGRMVYWANFYEKLFNFREARYFDIKGEYTGLTSKAMSAPDGMIRIPLNEESSKGAGQIEEFLMQFNGEGIQHVAFLTDDLVKTWDALKKIGMRFMTAPGDEYYEMLEGRLPDHGEPVDQLQARGILLDGSSVEGDKRLLLQIFSETLMGPVFFEFIQRKGDDGFGPDSFKVLFESMERDQVRRGVLTAD : NOT MET
SEQ ID NO:67 (protein, mutant HPPD polypeptide) MADLYENPMGLMGFEFIEFASPTPGTLEPIFEIMGFTKVATHRSKNVHLYRQGEINLILNNEPNSIASYFAAEHGPSVCGMAFRVKDSQKAYNRALELGAQPIHIDTGPMELNLPAIKGIGGAPLYLIDRFGEGSSIYDIDFVYLEGVERNPVGAGLKVIDHLTHNVYRGRMVYWANFYEKLFNFREARYFDIKGEYTGLTSKAMSAPDGMIRIALNEESSKGAGQIEEFLMQFNGEGIQHVAFLTDDLVKTWDALKKIGMRFLTAPGDEYYEMLEGRLPDHGEPVDQLQARGILLDGSSVEGDKRLLLQIFSEQLMGPVFFEFIQRKGDDGFGPDSFKVLFESVERDQVRRGVLTAD : MET
SEQ ID NO:12 (protein, mutant HPPD polypeptide) MADLYENPMGLMGFEFIEFASPTPGTLEPIFEIMGFTKVATHRSKNVHLYRQGEINLILNNEPNSIASYFAAEHGPSVCGMAFRVKDSQKAYNRALELGAQPIHIDTGPMELNLPAIKGIGGAPLYLIDRFGEGSSIYDIDFVYLEGVERNPVGAGLKVIDHLTHNVYRGRMVYWANFYEKLFNFREARYFDIKGEYTGLTSKAMSAPDGMIRIPLNEESSKGAGQIEEFLMQFNGEGIQHVAFLTDDLVKTWDALKKIGMRFMTAPGDEYYEMLEGRLPDHGEPVDQLQARGILLDGSSVEGDKRLLLQIFSERLMGPVFFEFIQRKGDDGFGPDSFKVLFEQIERDQVRRGVLTAD : NOT MET
SEQ ID NO:36 (protein, mutant HPPD polypeptide) MADLYENPMGLMGFEFIEFASPTPGTLEPIFEIMGFTKVATHRSKNVHLYRQGEINLILNNEPNSIASYFAAEHGPSVCGMAFRVKDSQKAYNRALELGAQPIHIDTGPMELNLPAIKGIGGAPLYLIDRFGEGSSIYDIDFVYLEGVERNPVGAGLKVIDHLTHNVYRGRMVYWANFYEKLFNFREARYFDIKGEYTGLTSKAMSAPDGMIRIPLNEESSKGAGQIEEFLMQFNGEGIQHVAFLTDDLVKTWDALKKIGMRFMTAPGDEYYEMLEGRLPDHGEPVDQLQARGILLDGSSVEGDKRLLLQIFSEQLMGPVFFEFIQRKGDDGFGPHSFKVLFEQMERDQVRRGVLTAD : MET
SEQ ID NO:16 (protein, mutant HPPD polypeptide) MADLYENPMGLMGFEFIEFASPTPGTLEPIFEIMGFTKVATHRSKNVHLYRQGEINLILNNEPNSIASYFAAEHGPSVCGMAFRVKDSQKAYNRALELGAQPIHIDTGPMELNLPAIKGIGGAPLYLIDRFGEGSSIYDIDFVYLEGVERNPVGAGLKVIDHLTHNVYRGRMVYWANFYEKLFNFREARYFDIKGEYTGLTSKAMSAPDGMIRIPLNEESSKGAGQIEEFLMQFNGEGIQHVAFLTDDLVKTWDALKKIGMRFMTAPGDEYYEMLEGRLPDHGEPVDQLQARGILLDGSSVEGDKRLLLQIFSERLMGPVFFEFIQRKGDDGFGPDSFKVLFESMERDQVRRGVLTAD : NOT MET

Shifting focus to the molecule that follows.
Check this molecule for Residual turnover [%] at or above 50%: SEQ ID NO:30 (protein, mutant HPPD polypeptide) MADLYENPMGLMGFEFIEFASPTPGTLEPIFEIMGFTKVATHRSKNVHLYRQGEINLILNNEPNSIASYFAAEHGPSVCGMAFRVKDSQKAYNRALELGAQPIHIDTGPMELNLPAIKGIGGAPLYLIDRFGEGSSIYDIDFVYLEGVERNPVGAGLKVIDHLTHNVYRGRMVYWANFYEKLFNFREARYFDIKGEYTGLTSKAMSAPDGMIRIPLNEESSKGAGQIEEFLMQFNGEGIQHVAFLTDDLVKTWDALKKIGMRFMTAPGDEYYEMLEGRLPDHGEPVDQLQARGILLDGSSVEGDKRLLLQIFSEQLMGPVFFEFIQRKGDDGFGPHSFKVLFEQIERDQVRRGVLTAD MET

This collection of values is drawn from patent US11371056B2.
